system: PDC KRAS tumor spheroids with HUVEC/MSC, viability; assay: Anticancer human tumor 349418-098-R-PDC patient-derived lung adenocarcinoma cell line growth inhibition [KRAS2]; conditions: second compound 0.1 µM; first compound 0.001 µM; active = viability on the fitted dose curve at most 10% of control; inactive = the rest
Outcomes: active, inactive

Compound	Assigned class
Cn1ncnc1[C@H]1c2n[nH]c(=O)c3cc(F)cc(c23)N[C@@H]1c1ccc(F)cc1 + C=CC(=O)N1CCN(c2nc(=O)n(-c3c(C)ccnc3C(C)C)c3nc(-c4c(O)cccc4F)c(F)cc23)C(C)C1	inactive
CN(C)C/C=C/C(=O)Nc1cc2c(Nc3ccc(F)c(Cl)c3)ncnc2cc1O[C@H]1CCOC1 + CC1OCC2(CCN(c3cnc(Sc4ccnc(N)c4Cl)c(N)n3)CC2)C1N	inactive
CC(=O)Nc1cccc(-n2c(=O)n(C3CC3)c(=O)c3c(Nc4ccc(I)cc4F)n(C)c(=O)c(C)c32)c1 + COc1cc2nc(C)nc(NC(C)c3cc(N)cc(C(F)(F)F)c3)c2cc1OC1CCOC1	active
Cn1ncnc1[C@H]1c2n[nH]c(=O)c3cc(F)cc(c23)N[C@@H]1c1ccc(F)cc1 + C=CC(=O)N1CCN(c2nc(OCC3CCCN3C)nc3c2CCN(c2cccc4cccc(C)c24)C3)CC1CC#N	inactive
CC(C)n1nc(-c2ccc3oc(N)nc3c2)c2c(N)ncnc21 + CC1OCC2(CCN(c3cnc(Sc4ccnc(N)c4Cl)c(N)n3)CC2)C1N	inactive
CC(=O)Nc1cccc(-n2c(=O)n(C3CC3)c(=O)c3c(Nc4ccc(I)cc4F)n(C)c(=O)c(C)c32)c1 + C=CC(=O)N1CCN(c2nc(=O)n(-c3c(C)ccnc3C(C)C)c3nc(-c4c(O)cccc4F)c(F)cc23)C(C)C1	inactive
CC(=O)Nc1cccc(-n2c(=O)n(C3CC3)c(=O)c3c(Nc4ccc(I)cc4F)n(C)c(=O)c(C)c32)c1 + CC1OCC2(CCN(c3cnc(Sc4ccnc(N)c4Cl)c(N)n3)CC2)C1N	active
CC(C)n1nc(-c2ccc3oc(N)nc3c2)c2c(N)ncnc21 + C=CC(=O)N1CCN(c2nc(=O)n(-c3c(C)ccnc3C(C)C)c3nc(-c4c(O)cccc4F)c(F)cc23)C(C)C1	inactive
CC(C)n1nc(-c2ccc3oc(N)nc3c2)c2c(N)ncnc21 + CNCc1ccccc1-c1csc(C(C)Nc2nc(C)nc3cc(OC)c(OC)cc23)c1	inactive
Cn1ncnc1[C@H]1c2n[nH]c(=O)c3cc(F)cc(c23)N[C@@H]1c1ccc(F)cc1 + CC1OCC2(CCN(c3cnc(Sc4ccnc(N)c4Cl)c(N)n3)CC2)C1N	inactive
CN(C)C/C=C/C(=O)Nc1cc2c(Nc3ccc(F)c(Cl)c3)ncnc2cc1O[C@H]1CCOC1 + C=CC(=O)N1CCN(c2nc(OCC3CCCN3C)nc3c2CCN(c2cccc4cccc(C)c24)C3)CC1CC#N	inactive

----------
system: PDC KRAS tumor spheroids with HUVEC/MSC, viability; assay: Anticancer human tumor 349418-098-R-PDC cell line growth inhibition [KRAS2]; conditions: second compound 0.1 µM; first compound 0.001 µM; hits give low values;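 also: spheroids exposed to compounds for seven days before readout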
Please assign class 0 whenever viability, T/C is at or above 50%, and class 1 whenever it is below.

Compound	Assigned class
CN(C)C/C=C/C(=O)Nc1cc2c(Nc3ccc(F)c(Cl)c3)ncnc2cc1O[C@H]1CCOC1 + CNCc1ccccc1-c1csc(C(C)Nc2nc(C)nc3cc(OC)c(OC)cc23)c1	class 0
CC(C)n1nc(-c2ccc3oc(N)nc3c2)c2c(N)ncnc21 + COc1cc2nc(C)nc(NC(C)c3cc(N)cc(C(F)(F)F)c3)c2cc1OC1CCOC1	class 0
CC(=O)Nc1cccc(-n2c(=O)n(C3CC3)c(=O)c3c(Nc4ccc(I)cc4F)n(C)c(=O)c(C)c32)c1 + C=CC(=O)N1CCN(c2nc(OCC3CCCN3C)nc3c2CCN(c2cccc4cccc(C)c24)C3)CC1CC#N	class 1
Cn1ncnc1[C@H]1c2n[nH]c(=O)c3cc(F)cc(c23)N[C@@H]1c1ccc(F)cc1 + COc1cc2nc(C)nc(NC(C)c3cc(N)cc(C(F)(F)F)c3)c2cc1OC1CCOC1	class 0
CC(C)n1nc(-c2ccc3oc(N)nc3c2)c2c(N)ncnc21 + C=CC(=O)N1CCN(c2nc(OCC3CCCN3C)nc3c2CCN(c2cccc4cccc(C)c24)C3)CC1CC#N	class 1
CN(C)C/C=C/C(=O)Nc1cc2c(Nc3ccc(F)c(Cl)c3)ncnc2cc1O[C@H]1CCOC1 + C=CC(=O)N1CCN(c2nc(=O)n(-c3c(C)ccnc3C(C)C)c3nc(-c4c(O)cccc4F)c(F)cc23)C(C)C1	class 0
Cn1ncnc1[C@H]1c2n[nH]c(=O)c3cc(F)cc(c23)N[C@@H]1c1ccc(F)cc1 + CNCc1ccccc1-c1csc(C(C)Nc2nc(C)nc3cc(OC)c(OC)cc23)c1	class 0
CN(C)C/C=C/C(=O)Nc1cc2c(Nc3ccc(F)c(Cl)c3)ncnc2cc1O[C@H]1CCOC1 + COc1cc2nc(C)nc(NC(C)c3cc(N)cc(C(F)(F)F)c3)c2cc1OC1CCOC1	class 0
CC(=O)Nc1cccc(-n2c(=O)n(C3CC3)c(=O)c3c(Nc4ccc(I)cc4F)n(C)c(=O)c(C)c32)c1 + CNCc1ccccc1-c1csc(C(C)Nc2nc(C)nc3cc(OC)c(OC)cc23)c1	class 1
